Hi there, I'd appreciate the recorded pKd for every entry that follows.
# TESTED ON: T1, sTNFR2, monomeric extracellular domains of TNFR2 obtained from etanercept (Homo sapiens, UniProt P20333)
# T1 construct: extracellular domains of TNFR2 as in etanercept; also called TNFR2 ECD; source: from etanercept (Pfizer): IdeS digestion, reduction with 2-mercaptoethylamine, purified (Protein A flow-through, SEC); not shown: Fc (human IgG1, of etanercept), C-terminal, cleaved
# ASSAY NOTES: SPR; antibody captured (~400 RU) on anti-human IgG Fc on a CM5 chip, sTNFR2 as analyte in twofold dilution series; PBS with 0.005% Tween 20, pH 7.4, 25 °C; 1:1 global kinetics fit
# CONDITION PARAMETERS: both partners purified
Answers are plain numbers, as −log10 of the molar value.

# count of solved cases: 3
# BINDER, ASSAY RESULT
measured = [
    ("TR109 chimeric conventional IgG (antibody, V domains shown) VH: QVQLKESGPGLVAPSQSLSITCTVSGFSLTVYGVNWVRQPPGKGLEWLGMIWGDGSTAYNSALKSRLTITKDNSKTQVFLKMNSLQTDDTARYYCARDGRRYALDYWGQGTSVTVSS VL: DIVLTQSPTSLAVSLGQRATISCRASESVDSYGDSFLHWYQQKPGQPPILLIYRASNLDSGIPARFSGSGSRTDFTLTINPVEADDVATYYCQQSNEDPYTFGGGTKLEIK", 8.25),
    ("TR45 chimeric conventional IgG (antibody, V domains shown) VH: EVQLQQSGPEMEKPGASVKISCKASGYSFTGYNMNWVKQSIGKSLEWIGKIDPYYGGTDYNLRFKDKATLTVDKSSSTAYMHLSRLTSEDSAVYYCAREPNYGSNDWYFDVWGAGTTVTVSS VL: DIQVTQTTSSLSASLGDRVTISCRASQDIDNYLNWYQQRPDGTVKLLIYYTSILHSGVPSRFSGSGSRTDFSLTISSLEEEDFATYFCQQGNTLPWTFGGGTKLEFK", 7.72),
    ("TR92 chimeric conventional IgG (antibody, V domains shown) VH: KVQLQQSGAELVKPGASVKLSCKASGYTFTESIIHWVKQRSGQGLEWIGWFYPGSDNINYNEKFKDKATLTADKSSSTVYMELTRLTSEDSAVYFCASHEGPYVYFDYWGQGTTLTVSS VL: DIVMTQSHKFMSTSVGDRVSITCKASQDVSTAVAWYQQKPGQSPKLLIYWTSTRHTGVPDRFTGSGSGTDYTLTISSVQAEDLALYYCQHHYSTPYTFGGGTKLEIQ", 8.40),
]

Okay, next one:
Reported pKd, binder TR96 chimeric conventional IgG (antibody, V domains shown) VH: EVQLQQSGAELVKPGASVKLSCTPSGFNIKDTYMHWVKQRPEQGLEWIGRIDPANGYTEYDPKFQDKATITADTSSNTAYLQLSSLTSEDTAVYYCADTQLYYWGQGTTLTVSS VL: QIVLTQSPAIMSASLGERVTMTCTASSSVSSTYLHWYQQKPGSSPKLWIYSTSNLASGVPARFSGSGSGTSYSLTISNMEAEDAATYYCHQYHRSPLTFGAGTKLELK : ____
9.38
